system: U2OS; assay: cell viability relative to DMSO; higher = less toxic; conditions: 72 h; 10 nM
measurement kind: cell viability (%)
Express your answer in %, writing the number without its unit.

OC[C@@H](O)[C@@H](O)[C@@H](O)CO :: 96.2
O=C(O)CCC/C=C\C[C@@H]1[C@@H](/C=C/[C@@H](O)COc2cccc(Cl)c2)[C@H](O)C[C@@H]1O (racemic) [cloprostenol-(+/-)] :: 106
C[C@H](c1ccc(F)cc1CCCC(=O)O)N(c1cc(F)ccc1F)S(=O)(=O)c1ccc(Cl)cc1 :: 93.5

Can you share its cell viability? I mean this molecule: Cc1cccc(-c2nn3c(c2-c2ccnc4ccc(C(N)=O)cc24)CCC3)n1
99.5

* * *

test system: Caco-2; assay: drug sensitivity score (DSS) for viability; higher = more toxic; extreme values may be limits of the assay; conditions: 72 h
measurement kind: drug sensitivity score
// return a plain number; no unit text

CCOc1cn(-c2ccc(F)cc2C)nc1C(=O)Nc1ccc(Oc2ccnc3cc(OC)c(OC)cc23)c(F)c1 [LDC1267] :: 2.4
C[C@H]1CNCCCN1S(=O)(=O)c1cccc2cncc(F)c12 [ripasudil] :: 0
COCC1=C(C(=O)O)N2C(=O)[C@@H](NC(=O)/C(=N\OC)c3csc(N)n3)[C@H]2SC1 [cefpodoxime] :: 0

Item under review: CN1C(=O)COc2c(C(=O)NC3CN4CCC3CC4)cc(Cl)cc21 (stereo not drawn) [azasetron] . Reported drug sensitivity score?
0

Which measured drug sensitivity score value corresponds to CC(C)=CCC/C(C)=C/CC/C(C)=C/CSc1ccccc1C(=O)O [salirasib] ?
0

Can you share its drug sensitivity score? I mean this compound: CCCCOc1ccc(CC/C=C2\SC(=O)N(CCN)C2=O)cc1 [K145]
1.7

What value of drug sensitivity score has been reported for the following compound? CC(C)(CCCCCC(O)CCCCCC(C)(C)C(=O)O)C(=O)O [bempedoic-acid]
0

// returns reported drug sensitivity score for input O=C(c1cn(Cc2cncn2Cc2ccc(Br)cc2)cc1-c1cccc2ccccc12)N1CCOCC1
4.3

For the compound shown here, O=C1C=C2C=C[C@@H]3C[C@@]2(O1)[C@H]1CCCCN31 [securinine] , give the reported drug sensitivity score.
0

* * *

system: Caco-2; assay: cell viability relative to DMSO; higher = less toxic; settings: 72 h; 10 nM
measurement kind: cell viability (%)
The reply should be a number in %, with the unit left off.

Known cell viability results, listed for orientation:
CC(C)CCNc1ncccc1C(=O)N1CCN(Cc2ccccc2)CC1 :: 97.8
COC[C@H](NC(=O)c1cnc(C)s1)C(=O)N[C@@H](COC)C(=O)N[C@@H](Cc1ccccc1)C(=O)[C@@]1(C)CO1 :: 94.8
CC(C)[N+](C)(CCOC(=O)C1c2ccccc2Oc2ccccc21)C(C)C :: 95.3
COCC1=C(C(=O)O)N2C(=O)[C@@H](NC(=O)/C(=N\OC)c3csc(N)n3)[C@H]2SC1 :: 112
COCc1c(-c2ccc(NC(=O)Nc3cc(C(F)(F)F)ccc3F)c(F)c2)c2c(N)ncnn2c1CN1CCOCC1 :: 99

// cell viability lookup, key: COc1cc(C(=O)NCCCCCC(=O)O)cc(OC)c1OC
111

Query: cell viability; subject: N=C(N)NCCC[C@H](NC(=O)c1sccc1NS(=O)(=O)c1cccc2nsnc12)C(=O)O
104

Fill in the blank: the reported cell viability of CC(C)(Cc1ccc2ccccc2c1)NC[C@@H](O)COc1cccc(Cl)c1C#N is ____.
101
